Data credit: paper PMC11926880

- Assay Text: tissue distribution pharmacokinetics after single i.p. administration
- Assay type: in vivo, rat
- Cond: male, Wistar, rat, heart/serum, ip, 0.3 mg/kg, heart, 0.3 mg/kg i.p.; read-out: AUC ratio (tissue-to-serum AUC0–t)

Entry Smiles: CN1CCN(c2nc(N)nc(C(C)(C)Sc3ccc4ccccc4c3)n2)CC1
Kp: 2

* * *

- Assay Text: pharmacokinetics in serum after single i.p. administration
- Format: in vivo, rat
- Cond: male, Wistar, rat, ip, 0.3 mg/kg, 0.3 mg/kg i.p., single, read-out: Vz/F
Assay Endpoint: Vd/F (L/kg)

Entry Smiles: CN1CCN(c2nc(N)nc(C(C)(C)Sc3ccc4ccccc4c3)n2)CC1
Measure Unit: L/kg
Val: 28.1

* * *

- Assay Text: tissue distribution pharmacokinetics after single i.p. administration
- Format: in vivo, rat
- Cond: male, Wistar, rat, liver, ip, 0.3 mg/kg, liver, 0.3 mg/kg i.p.; read-out: Cmax
Assay Endpoint: Cmax (ng/g)

Entry Smiles: CN1CCN(c2nc(N)nc(C(C)(C)Sc3ccc4ccccc4c3)n2)CC1
Val: 149

* * *

- Assay Text: pharmacokinetics in serum after single i.p. administration
- Type: in vivo, rat
- Cond: male, Wistar, rat, ip, 0.3 mg/kg i.p., single

Compound: CN1CCN(c2nc(N)nc(C(C)(C)Sc3ccc4ccccc4c3)n2)CC1 [WA-22]
MRT, h: 1.61

* * *

- Assay Text: tissue distribution pharmacokinetics after single i.p. administration
- Type: in vivo, rat
- Cond: male, Wistar, rat, ip; liver, 1.0 mg/kg i.p.
Assay Endpoint: MRT (min)

Entry Smiles: CN1CCN(c2nc(N)nc(C(C)(C)Sc3ccc4ccccc4c3)n2)CC1
Val: 51.3

* * *

- Assay Text: tissue distribution pharmacokinetics after single i.p. administration
- Type: in vivo, rat
- Cond: male, Wistar, rat, brain, ip, 1 mg/kg, brain, 1.0 mg/kg i.p.; read-out: Tmax (converted)
Assay Endpoint: Tmax (min)

Entry Smiles: CN1CCN(c2nc(N)nc(C(C)(C)Sc3ccc4ccccc4c3)n2)CC1
Assay Endpoint: Tmax
Val: 8

* * *

- Assay Text: tissue distribution pharmacokinetics after single i.p. administration
- Assay type: in vivo, rat
- Cond: male, Wistar, rat, ip; heart, 1.0 mg/kg i.p.

Compound: CN1CCN(c2nc(N)nc(C(C)(C)Sc3ccc4ccccc4c3)n2)CC1 [WA-22]
MRT [h]: 1.81

* * *

- Assay Text: pharmacokinetics in serum after single i.p. administration
- Type: in vivo, rat
- Cond: male, Wistar, rat, ip, 1 mg/kg i.p., single
Assay Endpoint: AUC(0-inf) (ng·h/mL)

Compound: CN1CCN(c2nc(N)nc(C(C)(C)Sc3ccc4ccccc4c3)n2)CC1 [WA-22]
Assay Endpoint: AUC(0-inf)
Measure Unit: ng·h/mL
Val: 55.9

* * *

- Assay Text: tissue distribution pharmacokinetics after single i.p. administration
- Format: in vivo, rat
- Cond: male, Wistar, rat, liver (relative to serum), ip, 1 mg/kg, liver, 1.0 mg/kg i.p.; read-out: AUC ratio (tissue-to-serum AUC0–t)
Assay Endpoint: Kp

Entry Smiles: CN1CCN(c2nc(N)nc(C(C)(C)Sc3ccc4ccccc4c3)n2)CC1
Val: 6.32

* * *

- Assay Text: tissue distribution pharmacokinetics after single i.p. administration
- Assay type: in vivo, rat
- Cond: male, Wistar, rat, heart/serum, ip, 1 mg/kg, heart-to-serum, 1 mg/kg i.p.; read-out: AUC0–∞ (ng·h/g)/AUC0–∞ (ng·h/mL)
- Protocol: Standard laboratory food (LSM-B) and filtered water as well as environment enrichment were freely available. Animals were randomly divided into treatment groups using a computer-based random order generator. […] The interday and intraday precision and accuracy of quality control samples evaluated in the serum and tissue homogenates were within 15%. […] The MRT is calculated to be […], where AMUC0-∞ is the area under the first moment curve from the time of dosing to infinity. […]

Entry Smiles: CN1CCN(c2nc(N)nc(C(C)(C)Sc3ccc4ccccc4c3)n2)CC1
Kp: 2.09

* * *

- Assay Text: tissue distribution pharmacokinetics after single i.p. administration
- Format: in vivo, rat
- Cond: male, Wistar, rat, lungs/serum, ip, 1 mg/kg, lungs-to-serum, 1 mg/kg i.p.; read-out: Cmax (ng/g)/Cmax (ng/mL)

Entry Smiles: CN1CCN(c2nc(N)nc(C(C)(C)Sc3ccc4ccccc4c3)n2)CC1
Kp: 15

* * *

- Assay Text: tissue distribution pharmacokinetics after single i.p. administration
- Format: in vivo, rat
- Cond: male, Wistar, rat, ip; heart, 0.3 mg/kg i.p.

Entry Smiles: CN1CCN(c2nc(N)nc(C(C)(C)Sc3ccc4ccccc4c3)n2)CC1
MRT: 1.73 h

* * *

- Test system: SH-SY5Y cells
- Assay Text: MTS cell viability assay 27 h
- Type: cell-based, human
- Cond: Homo sapiens, SH-SY5Y, 27 h, read-out: IC50 x̅ ± SD, MTS, SH-SY5Y, 27 h of exposure
Assay Endpoint: IC50

Entry Smiles: CN1CCN(c2nc(N)nc(C(C)(C)Sc3ccc4ccccc4c3)n2)CC1
Target Or System: SH-SY5Y cells
Assay Endpoint: IC50
Val: > 200 µM

* * *

- Assay Text: tissue distribution pharmacokinetics after single i.p. administration
- Format: in vivo, rat
- Cond: male, Wistar, rat, ip; liver, 0.3 mg/kg i.p.

Entry Smiles: CN1CCN(c2nc(N)nc(C(C)(C)Sc3ccc4ccccc4c3)n2)CC1
MRT, min: 40.6

* * *

- Assay Text: tissue distribution pharmacokinetics after single i.p. administration
- Assay type: in vivo, rat
- Cond: male, Wistar, rat, brain/serum, ip, 0.3 mg/kg, brain, 0.3 mg/kg i.p.; read-out: AUC ratio (tissue-to-serum AUC0–t)

Entry Smiles: CN1CCN(c2nc(N)nc(C(C)(C)Sc3ccc4ccccc4c3)n2)CC1
Kp: 1.89

* * *

- Assay Text: tissue distribution pharmacokinetics after single i.p. administration
- Type: in vivo, rat
- Cond: male, Wistar, rat, brain (relative to serum), ip, i.p. administration; read-out: brain-to-serum AUC ratio

Entry Smiles: CN1CCN(c2nc(N)nc(C(C)(C)Sc3ccc4ccccc4c3)n2)CC1
Kp: ~2.17

* * *

- Assay Text: pharmacokinetics in serum after single i.p. administration
- Assay type: in vivo, rat
- Cond: male, Wistar, rat, ip, 1.0 mg/kg i.p., single
- Protocol: Standard laboratory food (LSM-B) and filtered water as well as environment enrichment were freely available. Animals were randomly divided into treatment groups using a computer-based random order generator. […] The serum concentration–time data were analyzed by a noncompartmental method using the WinNonlin 8.2 nonlinear least-squares regression program (Pharsight Corporation, a Certara Company, Princeton, NJ, USA) to obtain pharmacokinetic parameters. […]

Entry Smiles: CN1CCN(c2nc(N)nc(C(C)(C)Sc3ccc4ccccc4c3)n2)CC1
MRT: 2.7 h

* * *

- Assay Text: tissue distribution pharmacokinetics after single i.p. administration
- Type: in vivo, rat
- Cond: male, Wistar, rat, lungs/serum, ip, 1 mg/kg, lungs-to-serum, 1 mg/kg i.p.; read-out: AUC0–∞ (ng·h/g)/AUC0–∞ (ng·h/mL)
Assay Endpoint: Kp

Entry Smiles: CN1CCN(c2nc(N)nc(C(C)(C)Sc3ccc4ccccc4c3)n2)CC1
Val: 13.9

* * *

- Assay Text: tissue distribution pharmacokinetics after single i.p. administration
- Format: in vivo, rat
- Cond: male, Wistar, rat, heart/serum, ip, 1 mg/kg, heart, 1.0 mg/kg i.p.; read-out: AUC ratio (tissue-to-serum AUC0–t)

Entry Smiles: CN1CCN(c2nc(N)nc(C(C)(C)Sc3ccc4ccccc4c3)n2)CC1
Kp: 2.63

* * *

- Assay Text: pharmacokinetics in serum after single i.p. administration
- Type: in vivo, rat
- Cond: male, Wistar, rat, ip, 1 mg/kg, 1.0 mg/kg i.p., single, read-out: t1/2λz

Compound: CN1CCN(c2nc(N)nc(C(C)(C)Sc3ccc4ccccc4c3)n2)CC1 [WA-22]
half-life, h: 2.81

* * *

- Assay Text: tissue distribution pharmacokinetics after single i.p. administration
- Assay type: in vivo, rat
- Cond: male, Wistar, rat, ip; brain, 0.3 mg/kg i.p.
- Method: Standard laboratory food (LSM-B) and filtered water as well as environment enrichment were freely available. Animals were randomly divided into treatment groups using a computer-based random order generator. […] The interday and intraday precision and accuracy of quality control samples evaluated in the serum and tissue homogenates were within 15%. […] The MRT is calculated to be […], where AMUC0-∞ is the area under the first moment curve from the time of dosing to infinity. […]

Entry Smiles: CN1CCN(c2nc(N)nc(C(C)(C)Sc3ccc4ccccc4c3)n2)CC1
MRT: 1.07 h

* * *

- Assay Text: pharmacokinetics in serum after single i.p. administration
- Assay type: in vivo, rat
- Cond: male, Wistar, rat, ip, 1.0 mg/kg i.p., single
- Procedure: Standard laboratory food (LSM-B) and filtered water as well as environment enrichment were freely available. Animals were randomly divided into treatment groups using a computer-based random order generator. […] The serum concentration–time data were analyzed by a noncompartmental method using the WinNonlin 8.2 nonlinear least-squares regression program (Pharsight Corporation, a Certara Company, Princeton, NJ, USA) to obtain pharmacokinetic parameters. […]

Entry Smiles: CN1CCN(c2nc(N)nc(C(C)(C)Sc3ccc4ccccc4c3)n2)CC1
Tmax: 5 min
